Target: ΔF508-CFTR (Homo sapiens, UniProt P13569, DEL508-508)
Sequence (P13569 with tags, fused parts or gaps DEL508-508): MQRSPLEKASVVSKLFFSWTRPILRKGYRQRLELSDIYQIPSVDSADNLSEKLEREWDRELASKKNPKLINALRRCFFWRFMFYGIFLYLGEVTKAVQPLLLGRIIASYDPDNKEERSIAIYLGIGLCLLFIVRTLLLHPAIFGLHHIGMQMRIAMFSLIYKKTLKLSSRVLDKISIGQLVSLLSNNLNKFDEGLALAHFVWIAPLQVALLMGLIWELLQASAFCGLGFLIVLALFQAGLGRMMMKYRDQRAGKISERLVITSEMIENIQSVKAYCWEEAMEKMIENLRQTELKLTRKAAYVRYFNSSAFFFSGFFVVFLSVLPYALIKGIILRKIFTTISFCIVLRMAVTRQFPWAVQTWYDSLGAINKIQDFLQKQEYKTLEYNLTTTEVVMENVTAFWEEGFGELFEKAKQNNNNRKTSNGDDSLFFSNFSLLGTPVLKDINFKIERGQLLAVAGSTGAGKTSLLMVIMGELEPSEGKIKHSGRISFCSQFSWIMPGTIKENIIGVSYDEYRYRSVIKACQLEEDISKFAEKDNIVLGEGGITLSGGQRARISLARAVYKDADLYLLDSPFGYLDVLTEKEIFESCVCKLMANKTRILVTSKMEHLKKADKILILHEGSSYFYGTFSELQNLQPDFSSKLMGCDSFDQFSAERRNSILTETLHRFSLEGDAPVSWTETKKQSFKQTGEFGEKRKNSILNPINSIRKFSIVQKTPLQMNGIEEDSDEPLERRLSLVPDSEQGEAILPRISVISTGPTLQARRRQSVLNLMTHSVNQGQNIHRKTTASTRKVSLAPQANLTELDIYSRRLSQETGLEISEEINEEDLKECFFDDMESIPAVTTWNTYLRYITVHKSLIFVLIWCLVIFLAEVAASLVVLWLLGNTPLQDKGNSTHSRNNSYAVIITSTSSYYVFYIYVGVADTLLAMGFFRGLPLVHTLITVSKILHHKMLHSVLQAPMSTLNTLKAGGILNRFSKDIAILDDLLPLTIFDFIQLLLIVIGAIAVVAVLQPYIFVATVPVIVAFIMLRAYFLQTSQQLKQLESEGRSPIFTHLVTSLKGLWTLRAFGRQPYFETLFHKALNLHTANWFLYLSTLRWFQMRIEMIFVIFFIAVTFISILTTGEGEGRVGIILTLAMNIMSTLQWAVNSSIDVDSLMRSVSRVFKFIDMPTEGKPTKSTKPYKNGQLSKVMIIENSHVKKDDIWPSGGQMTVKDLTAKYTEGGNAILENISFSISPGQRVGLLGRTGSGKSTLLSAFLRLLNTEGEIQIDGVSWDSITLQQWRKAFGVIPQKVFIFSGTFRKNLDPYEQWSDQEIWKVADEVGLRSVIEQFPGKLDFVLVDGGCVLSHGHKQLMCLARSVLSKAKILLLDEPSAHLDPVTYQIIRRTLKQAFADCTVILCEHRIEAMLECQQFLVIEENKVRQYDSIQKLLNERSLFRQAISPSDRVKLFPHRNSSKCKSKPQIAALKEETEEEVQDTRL
Assay: Fluorescence (YFP-H148Q/I152L) I− influx assay of ΔF508-CFTR potentiator activity in FRT cells
Assay type: cell-based
Parameters: expressed in transfected cells
Conditions: sulfonamide containing compounds, 27° C. 24 h, forskolin 20 μM, read-out: Ka
Provide the reported EC50 of each item.
Numbers only, in nM.

Known results for compounds:
COCCCNC(=O)c1c[nH]c2ccc(S(=O)(=O)N(C)c3cc(C)ccc3C)cc2c1=O ... 290
CCc1ccccc1N(C)S(=O)(=O)c1ccc2[nH]cc(C(=O)NC(C)CC)c(=O)c2c1 (stereo not shown) ... 440
CCC(C)NC(=O)c1c[nH]c2ccc(S(=O)(=O)N(C)c3ccc(Br)cc3)cc2c1=O (stereo not shown) ... 810
O=C(NC1CCCCC1)c1c[nH]c2ccc(S(=O)(=O)N3CCc4ccccc43)cc2c1=O ... 570
CCN(c1ccccc1)S(=O)(=O)c1ccc2[nH]cc(C(=O)NC3CCCCC3)c(=O)c2c1 ... 30

Dear colleague, could you please provide EC50 for the compounds listed below?
1. CCCCNC(=O)c1c[nH]c2ccc(S(=O)(=O)N(C)c3ccccc3C)cc2c1=O
2. CCOC(CNC(=O)c1c[nH]c2ccc(S(=O)(=O)N(C)c3ccc(CC)cc3)cc2c1=O)OCC
3. CCCNC(=O)c1c[nH]c2ccc(S(=O)(=O)N(C)c3ccc(C)c(C)c3)cc2c1=O
4. CCCCCCNC(=O)c1c[nH]c2ccc(S(=O)(=O)N(CC)c3ccccc3)cc2c1=O
5. CCc1ccccc1N(C)S(=O)(=O)c1ccc2[nH]cc(C(=O)NCc3ccccn3)c(=O)c2c1
6. CCOCCCNC(=O)c1c[nH]c2ccc(S(=O)(=O)N(C)c3ccccc3CC)cc2c1=O

1: 200; 2: 360; 3: 840; 4: 1280; 5: 270; 6: 620

Take each entry in turn and give its EC50.
1. C=CCN(c1ccccc1)S(=O)(=O)c1ccc2[nH]cc(C(=O)NCc3ccccn3)c(=O)c2c1
2. C=CCN(c1ccccc1)S(=O)(=O)c1ccc2[nH]cc(C(=O)NCCCCCC)c(=O)c2c1
3. CCN(c1ccccc1)S(=O)(=O)c1ccc2[nH]cc(C(=O)NCC3CCCO3)c(=O)c2c1 (stereo not shown)
4. CCN(c1ccccc1)S(=O)(=O)c1ccc2[nH]cc(C(=O)NC(C)C)c(=O)c2c1
5. CCN(CC)S(=O)(=O)c1ccc2[nH]cc(C(=O)NCc3ccc4c(c3)OCO4)c(=O)c2c1

[160, 190, 240, 1160, 380]

----------
Molecular target: ΔF508-CFTR (Homo sapiens, UniProt P13569, DEL508-508)
Assay: Fluorescence (YFP-H148Q/I152L) I− influx assay of ΔF508-CFTR potentiator activity in FRT cells
Assay type: cell-based
Parameters: expressed in transfected cells
Details: sulfonamide containing compounds, 27° C. 24 h, forskolin 20 μM, read-out: Ka
Task for the reader: assign each of the following compounds its reported pEC50.
Numbers only, as −log10 of the molar value.

Illustrative cases are given below, each with its answer.
CCCNC(=O)c1c[nH]c2ccc(S(=O)(=O)N(C)c3ccc(F)cc3)cc2c1=O ... 5.90
CCN(c1ccccc1)S(=O)(=O)c1ccc2[nH]cc(C(=O)NCc3ccc(C)cc3)c(=O)c2c1 ... 6.23
CCOCCCNC(=O)c1c[nH]c2ccc(S(=O)(=O)N(C)c3ccc(Cl)cc3F)cc2c1=O ... 5.86
COc1ccc(Cl)cc1N(C)S(=O)(=O)c1ccc2[nH]cc(C(=O)NCCC3=CCCCC3)c(=O)c2c1 ... 6.43
Cc1cccc(N(C)S(=O)(=O)c2ccc3[nH]cc(C(=O)NCCC4=CCCCC4)c(=O)c3c2)c1 ... 6.31
CCN(c1ccccc1)S(=O)(=O)c1ccc2[nH]cc(C(=O)NCCCOC)c(=O)c2c1 ... 6.85

Okay, now this compound:
What does the data say about its pEC50? Entry: C=CCNC(=O)c1c[nH]c2ccc(S(=O)(=O)N(C)c3ccccc3CC)cc2c1=O 5.94

Reference source: patent US7939558B2
